The next entries give measured IC50 for Hsp90 (Homo sapiens, UniProt P07900).
Where a name gives a salt, the structure may show the parent alone.

| compound | subject.of.test | IC50 |
| --- | --- | --- |
| CCNC(=O)c1noc(-c2cc(Cl)c(O)cc2O)c1NC(=O)C12CC3CC(CC(C3)C1)C2 | Hsp90 (Homo sapiens, UniProt P07900) | 100 to 1000 nM |
| CCNC(=O)c1noc(-c2cc(Cl)c(O)cc2O)c1NC(=O)CCN1CCOCC1 | Hsp90 (Homo sapiens, UniProt P07900) | 100 to 1000 nM |
| CCNC(=O)c1noc(-c2cc(Cl)c(O)cc2O)c1NCc1cc(CO)no1 | Hsp90 (Homo sapiens, UniProt P07900) | 100 to 1000 nM |
| CCNC(=O)c1noc(-c2cc(C(C)C)c(O)cc2O)c1NC(=O)[C@H]1CC[C@H](CN)CC1 [Example 26, hydrochloride] | Hsp90 (Homo sapiens, UniProt P07900) | < 100 nM |
| CCCCC[C@H]1CC[C@H](C(=O)Nc2c(C(=O)NCC)noc2-c2cc(C(C)C)c(O)cc2O)CC1 | Hsp90 (Homo sapiens, UniProt P07900) | 100 to 1000 nM |
| CCNC(=O)c1noc(-c2cc(Cl)c(O)cc2O)c1NC(=O)c1ccc(OC)c(OC)c1 | Hsp90 (Homo sapiens, UniProt P07900) | 100 to 1000 nM |
| CCNC(=O)c1noc(-c2cc(Cl)c(O)cc2O)c1NC1CCCCC1 | Hsp90 (Homo sapiens, UniProt P07900) | 100 to 1000 nM |
| CCNC(=O)c1noc(-c2cc(C(C)C)c(O)cc2O)c1NC(=O)C1CCC(C(C)(C)C)CC1 (centres unmarked) | Hsp90 (Homo sapiens, UniProt P07900) | < 100 nM |
| CCNC(=O)c1noc(-c2cc(C(C)C)c(O)cc2O)c1NC(=O)C1CCCCC1 | Hsp90 (Homo sapiens, UniProt P07900) | 100 to 1000 nM |
| CCNC(=O)c1noc(-c2cc(Cl)c(O)cc2O)c1NC1CCN(C)CC1 | Hsp90 (Homo sapiens, UniProt P07900) | 1000 to 10000 nM |
| CCNC(=O)c1noc(-c2cc(C(C)C)c(O)cc2O)c1NC(=O)C1CCC(C(F)(F)F)CC1 (centres unmarked) | Hsp90 (Homo sapiens, UniProt P07900) | 100 to 1000 nM |
| CCNC(=O)c1noc(-c2cc(C(C)C)c(O)cc2O)c1NC(C)=O | Hsp90 (Homo sapiens, UniProt P07900) | < 100 nM |
| CCNC(=O)c1noc(-c2cc(C(C)C)c(O)cc2O)c1NC(=O)[C@H]1CC[C@H](N)CC1 [Example 25, hydrochloride] | Hsp90 (Homo sapiens, UniProt P07900) | < 100 nM |
| CCNC(=O)c1noc(-c2cc(Cl)c(O)cc2O)c1NCc1cc(C(=O)OC)no1 | Hsp90 (Homo sapiens, UniProt P07900) | < 100 nM |
| COc1ccc(C(=O)Nc2c(C(=O)NCC(F)(F)F)noc2-c2cc(Cl)c(O)cc2O)cc1 | Hsp90 (Homo sapiens, UniProt P07900) | 100 to 1000 nM |
| C=CC(=O)Nc1c(C(=O)NCC)noc1-c1cc(Cl)c(O)cc1O | Hsp90 (Homo sapiens, UniProt P07900) | 100 to 1000 nM |
| CCNC(=O)c1noc(-c2cc(Cl)c(O)cc2O)c1NC(C)=O | Hsp90 (Homo sapiens, UniProt P07900) | < 100 nM |

Hello, the source for this data is patent US8383616B2, in case you need it.
